Examples of compounds with documented REC50 = EC50 (compound)/EC50 (cyantraniliprole) follow.
System: Plutella xylostella (Diamond back moth) ryanodine receptor, containing the G4946E resistance mutation
Experiment: In vitro calcium fluorescence assay (Fluo-8 NW, FDSS) in human embryonic kidney cells expressing the ryanodine receptor
Assay type: cell-based
Settings: HEK cells expressing P. xylostella RyR G4946E; EC50 normalized against in-assay reference cyantraniliprole; ratio <=1 means equally or more active
A bare number is all that is needed in reply.

Examples from the recorded data:
Cc1cc2c(c(C(N)=O)c1NC(=O)c1cc(Cn3ncc(C(F)(F)F)n3)nn1-c1ncccc1Cl)OC(F)(F)O2 [Compound P21] = 0.55
Cc1cc2c(c(C(N)=O)c1NC(=O)c1cc(C(F)(F)F)nn1-c1ncccc1Cl)OC(F)(F)O2 [Compound P19] = 0.50
CNC(=O)c1c(NC(=O)c2cc(Cn3nnc(C(F)(F)F)n3)nn2-c2ncccc2Cl)c(C)cc2c1OC(F)(F)O2 = 5.77
CNC(=O)c1c(NC(=O)c2cc(Cn3ncc(C(F)(F)F)n3)nn2-c2ncccc2Cl)c(C)cc2c1OC(F)(F)O2 = 6.26
CNC(=O)c1c(NC(=O)c2cc(Cn3cc(C(F)(F)F)nn3)nn2-c2ncccc2Cl)c(C)cc2c1OC(F)(F)O2 = 2.55

Reported REC50 = EC50 (compound)/EC50 (cyantraniliprole) ( Cc1cc2c(c(C(=O)NC(C)C)c1NC(=O)c1cc(C(F)(F)F)nn1-c1ncccc1Cl)OC(F)(F)O2 ) = 7.27

Reported REC50 = EC50 (compound)/EC50 (cyantraniliprole) ( Cc1cc2c(c(C(N)=O)c1NC(=O)c1cc(Cn3cc(C(F)(F)F)nn3)nn1-c1ncccc1Cl)OC(F)(F)O2 [Compound P22] ) = 0.91

Reported REC50 = EC50 (compound)/EC50 (cyantraniliprole) ( Cc1cc2c(c(C(N)=O)c1NC(=O)c1cc(Cn3nnc(C(F)(F)F)n3)nn1-c1ncccc1Cl)OC(F)(F)O2 [Compound P24] ) = 0.34

Reported REC50 = EC50 (compound)/EC50 (cyantraniliprole) ( CNC(=O)c1c(NC(=O)c2cc(C(F)(F)F)nn2-c2ncccc2Cl)c(C)cc2c1OC(F)(F)O2 ) = 4.65

###

Examples of compounds with documented melting point follow.

Examples from the recorded data:
Cc1cc2cn[nH]c2c(C(N)=O)c1NC(=O)c1cc(Cn2nnc(C(F)(F)F)n2)nn1-c1ncccc1Cl = 233 to 240 °C
Cc1cc2c(c(C(N)=O)c1NC(=O)c1cc(OCC(F)(F)F)nn1-c1ncccc1Cl)OC(F)(F)O2 = 240 to 245 °C
Cc1cc2nn[nH]c2c(C(N)=O)c1NC(=O)c1cc(OCC(F)(F)F)nn1-c1ncccc1Cl = 142.2 to 160.3 °C
Cc1cc2nn[nH]c2c(C(N)=O)c1NC(=O)c1cc(OC(F)F)nn1-c1ncccc1Cl = 147.5 to 161.2 °C

Reported melting point ( Cc1nc2cc(C)c(NC(=O)c3cc(Br)nn3-c3ncccc3Cl)c(C(N)=O)c2o1 ) = > 250 °C
